# Tested target: UniProt P43405
IC50 vs 20 nM: less than gives condition met; not less than gives condition not met.

>>> label_class("COCCOCCOCCOCCOCCOc1cc(Nc2nccc(Oc3ccc(NC(=O)Nc4cc(C(C)C)nn4-c4ccc(C)cc4)c4ccccc34)n2)cc(OC)c1")
"condition met"
>>> label_class("COCCOCCOCCOc1cc(Nc2nccc(Oc3ccc(NC(=O)Nc4cc(C(C)(C)C)nn4-c4ccc(OC)nc4)c4ccccc34)n2)cc(OC)c1")
"condition not met"
>>> label_class("COCCOCCOCCOCCOc1cc(Nc2nccc(Oc3ccc(NC(=O)Nc4cc(C(C)C)nn4-c4ccc(C)cc4)c4ccccc34)n2)cc(OC)c1")
"condition met"
>>> label_class("COCCOCCOCCOc1cc(Nc2nccc(Oc3ccc(NC(=O)Nc4cc(C(C)(C)C)nn4-c4ccc(OC)cc4)c4ccccc34)n2)cc(OC)c1")
"condition not met"
>>> label_class("COCCOCCOCCOCCOCCOCCOCCOc1cc(Nc2nccc(Oc3ccc(NC(=O)Nc4cc(C(C)C)nn4-c4ccc(C)cc4)c4ccccc34)n2)cc(OC)c1")
"condition met"

---

# Tested target: Syk (Homo sapiens (Human))
pIC50: −log10 of the molar value.
Each item that follows carries a reported pIC50.
Test readout: pIC50

>>> test_result("COc1cc(Nc2nccc(Oc3ccc(NC(=O)Nc4cc(C(C)(C)C)nn4-c4ccc(C)cc4)c4ccccc34)n2)cc(SCCCO)c1")
7.43
>>> test_result("COCCOCCOCCOc1cc(Nc2cc(Oc3ccc(NC(=O)Nc4cc(C(C)(C)C)nn4-c4ccc(C)cc4)c4ccccc34)ccn2)cc(OC)c1")
7.37
>>> test_result("COCCOCCOCCOc1cc(Nc2nccc(Oc3ccc(NC(=O)Nc4cc(C(C)(C)C)nn4-c4ccc(C)cc4)c4ccccc34)n2)cc(OC)n1")
7.57
>>> test_result("Cc1ccc(-n2nc(C(C)C)cc2NC(=O)Nc2ccc(Oc3ccnc(Nc4cccc(OCCOCCOCCO)c4)n3)c3ccccc23)cc1")
7.70
>>> test_result("COCCOCCOCCOc1cc(Nc2nccc(Oc3ccc(NC(=O)Nc4cc(C(C)(C)C)nn4-c4ccc(C)cc4)c(Cl)c3Cl)n2)cc(OC)c1")
7.25

---

# Tested target: GSK3α (Homo sapiens (Human), UniProt P49840)
# Sequence (P49840 whole entry): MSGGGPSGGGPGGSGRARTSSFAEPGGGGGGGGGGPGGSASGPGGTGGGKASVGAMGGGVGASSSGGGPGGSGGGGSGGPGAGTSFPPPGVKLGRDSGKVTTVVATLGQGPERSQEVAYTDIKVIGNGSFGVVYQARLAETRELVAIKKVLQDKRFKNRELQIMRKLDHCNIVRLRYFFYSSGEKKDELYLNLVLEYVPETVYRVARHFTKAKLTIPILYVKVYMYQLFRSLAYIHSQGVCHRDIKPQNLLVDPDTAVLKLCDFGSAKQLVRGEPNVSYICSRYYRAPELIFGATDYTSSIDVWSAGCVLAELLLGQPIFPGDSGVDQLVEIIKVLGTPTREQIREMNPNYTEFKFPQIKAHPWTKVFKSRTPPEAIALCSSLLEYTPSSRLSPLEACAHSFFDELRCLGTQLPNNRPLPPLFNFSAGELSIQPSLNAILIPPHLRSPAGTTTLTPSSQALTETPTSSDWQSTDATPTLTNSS
IC50 vs 3 µM: less than gives 1; not less than gives -1.

>>> label_class("C#Cc1cccc(Nc2nccc(Oc3ccc(NC(=O)Nc4cc(C(C)(C)C)nn4-c4ccc(OC)nc4)c4ccccc34)n2)c1 [Example 1]")
-1
>>> label_class("COCCOCCOCCOc1cc(Nc2nccc(Oc3ccc(NC(=O)Nc4cc(C(C)(C)C)nn4-c4ccc(N(C)C)cc4)c4ccccc34)n2)cc(OC)c1 [Example 63]")
-1
>>> label_class("COc1cc(Nc2nccc(Oc3ccc(NC(=O)Nc4cc(C(C)C)nn4-c4ccc(C)cc4)c(F)c3F)n2)cc(OCCN2CCOCC2)c1 [Example 25]")
1
>>> label_class("COCCOCCOCCOc1cc(Nc2nccc(Oc3ccc(NC(=O)Nc4cc(C(C)(C)C)nn4-c4ccc(C)cc4)c4ccccc34)n2)cc(N(C)C)c1 [Example 66]")
-1
>>> label_class("COc1cc(Nc2nccc(Oc3ccc(NC(=O)Nc4cc(C(C)(C)C)nn4-c4ccc(C)cc4)c4ccccc34)n2)cc(S(=O)(=O)C2CC2)c1 [Example 47]")
-1
